- System: HEK-293T
- assay.overview: Multiplex assay against HEK293T
- Type: toxicity, cell-based
- condition: human, 12 h, 10 µM, compound concentration 10 uM, replicate 1
Binary call on Population Membrane Permeable-Phenotype (%) with cut-off 1%: strictly below means t, and equality or higher means f.

compound	target.under.test	assigned.class
COc1cc2c(NC3CCN(C(C)C)CC3)nc(N3CCC(F)(F)CC3)nc2cc1OCCCN1CCCC1	HEK-293T	t
Cc1cn(-c2cc(NC(=O)c3ccc4c(c3)CN(c3cncnc3)C[C@@H]4C)cc(C(F)(F)F)c2)cn1	HEK-293T	f
CNc1oc(-c2cccc3ccccc23)nc1C#N	HEK-293T	t
Cc1cc2c(cc1N1C(=O)c3cccc4c(CCCO)ccc(c34)C1=O)n(C)c(=O)n2C	HEK-293T	f
Cc1nc(Cc2cccc(C(F)(F)F)c2)sc1-c1ccc(C(N)=O)nc1 [TP-024n]	HEK-293T	t
CCOc1cc2ncc(C#N)c(Nc3ccc(OCc4cccc(F)c4)c(Cl)c3)c2cc1NC(=O)/C=C/CN(C)C	HEK-293T	f

# next compound below
Does `Cl.Cl.Nc1ncnc2c1c(-c1cccc(OCc3ccccc3)c1)cn2[C@H]1C[C@@H](CN2CCC2)C1` have Population Membrane Permeable-Phenotype (%) strictly under 1%?
f

----------
- Tested on: U2OS
- assay.overview: Incucyte cell viability with U2OS; further: filed as whole numbers so only -1 and 0 and 1 occur
- Format: toxicity, cell-based
- condition: human, 18 h, 10 µM, compound concentration 10 uM, replicate number 1, timepoint 18 hours
measured.quantity: Growth Rate
Lab note: jot the number down without any unit.

In [3]: df
Out[3]:
                                   compound  target_under_test  endpoint_result
0  COc1cc2c(NC3CCN(C(C)C)CC3)nc(N3CCC(F)(F)CC3)nc2cc1OCCCN1CCCC1               U2OS                1
1  Cc1cc(SCc2sc(-c3ccc(C(F)(F)F)c(F)c3)nc2C)ccc1OCC(=O)O               U2OS                1
2  CC(C)(C)c1cnc(CSc2cnc(NC(=O)C3CCNCC3)s2)o1               U2OS                0
3  CN(CCOc1ccc(C[C@H](Nc2ccccc2C(=O)c2ccccc2)C(=O)O)cc1)c1ccccn1.O               U2OS                0
4  COc1cccc(OC)c1-c1cc(C(=O)NC2(C(=O)O)C3CC4CC(C3)CC2C4)nn1-c1ccnc2cc(Cl)ccc12 (stereo not drawn)               U2OS                0
5  C[C@@H]1CCc2ncc(F)cc2[C@H]2CCCN2c2ccn3ncc(c3n2)C(=O)N1               U2OS                0

Field request: Growth Rate | item: `CN(C)CCOc1ccc(-c2nc(-c3ccncc3)c(-c3ccc4c(c3)CC/C4=N\O)[nH]2)cc1`
0

// repeat for `CCOC(=O)c1cc(C#N)c(N2CCC(C(=O)NS(=O)(=O)Cc3ccccc3)CC2)nc1C` and report
0

----------
- Test system: HEK-293T
- assay.overview: Multiplex assay against HEK293T
- Assay type: toxicity, cell-based
- condition: human, 12 h, 10 µM, compound concentration 10 uM, replicate 1
measured.quantity: Population Normal (%)
The answer is to be given in %; state only the numeric part.

Examples with answers:
compound	endpoint.result
CC(=O)c1cc(-c2cc(C(=O)NC3CC3)ccc2C)c2ncccn12	84
CCc1cc2c(cc1CC)CC(NC[C@H](O)c1ccc(O)c3[nH]c(=O)ccc13)C2 [INDACATEROL]	69
COc1ccc(NS(=O)(=O)c2sc3ccc(Cl)cc3c2C)cc1N1CCNCC1.Cl	87
CCCn1c(=O)c2[nH]c(C34CC5CC(CC3C5)C4)nc2n(CCC)c1=O [ROLOFYLLINE]	84
Cc1nc(Cc2cccc(C(F)(F)F)c2)sc1-c1ccc(C(N)=O)nc1 [TP-024n]	87

Can you share its Population Normal (%)? I mean this compound: `COc1cc2c(NC3CCN(C(C)C)CC3)nc(N3CCC(F)(F)CC3)nc2cc1OCCCN1CCCC1`
81

Further, for CCC(=O)O[C@]1(C(=O)SCF)[C@H](C)C[C@H]2[C@@H]3C[C@H](F)C4=CC(=O)C=C[C@]4(C)[C@@]3(F)[C@@H](O)C[C@@]21C [FLUTICASONE PROPIONATE] ?
84

Now the compound CCOc1cc2ncc(C#N)c(Nc3ccc(OCc4cccc(F)c4)c(Cl)c3)c2cc1NC(=O)/C=C/CN(C)C [HKI-357]
89

Please answer likewise for `Cc1cn(-c2cc(NC(=O)c3ccc4c(c3)CN(c3cncnc3)C[C@@H]4C)cc(C(F)(F)F)c2)cn1`
86

Try the compound `Nc1nc2c(c(N3CCNCC3)n1)CCC1=C2[C@@H]2CCCC[C@@H]2O1`
84

Entry CN(C)CCOc1ccc(-c2nc(-c3ccncc3)c(-c3ccc4c(c3)CC/C4=N\O)[nH]2)cc1 [SB590885] please
90

Moving on to CCn1c(-c2nonc2N)nc2cnc(Oc3cccc(NC(=O)c4ccc(OCCN5CCOCC5)cc4)c3)cc21 [GSK-269962A]
87

# iterate: `Cl.Cl.Nc1ncnc2c1c(-c1cccc(OCc3ccccc3)c1)cn2[C@H]1C[C@@H](CN2CCC2)C1`
79

Do the same for CC(C)(C)c1cnc(CSc2cnc(NC(=O)C3CCNCC3)s2)o1 [BMS-387032] please
78

Next compound: `Cl.Cl.NC1(c2ccc(-c3nc4ccn5c(=O)[nH]nc5c4cc3-c3ccccc3)cc2)CCC1`
43
